pIC50: −log10 of the molar value.
A compilation of published pIC50 results with Tyrosine-protein kinase JAK3 (Homo sapiens, UniProt P52333).

>>> recorded_measurement("CCOC(=O)C(C)n1cc(Nc2ncc3ccn(CC(CC)CC)c3n2)cn1 (centres unmarked)")
"> 7.00"
>>> recorded_measurement("CC[C@H](CC(F)(F)F)n1cc(-c2nc(-c3cnn(C(CO)CO)c3)cn3nccc23)cn1")
"5.00 to 6.00"
>>> recorded_measurement("O=C(Nc1nc2cccc([C@@H]3CCC4(C3)CN(C(=O)[C@@H]3CC3(F)F)C4)n2n1)C1CC1")
"< 5.00"
>>> recorded_measurement("CCC(CC)n1cc(-c2nc(-c3cnn(C4CN(P(=O)(N(C)C)N(C)C)C4)c3)cn3nccc23)cn1")
"5.00 to 6.00"
>>> recorded_measurement("C=CC(=O)Nc1cccc(Oc2nc(Nc3ccc(N4CCC(N5CCCCC5)CC4)cc3)nc3ccsc23)c1")
"≥ 7.30"

# query: pIC50 of entry N#CCC(=O)N1CCC[C@@H](Nc2c(-c3ccn[nH]3)cnc3[nH]ccc23)C1
≥ 8.00

Next: C=CC(=O)N1CCCC(Nc2cc(Nc3ccc(Oc4ccccc4)cc3)ncn2)C1 (centres unmarked)
≤ 5.00
